biological target: Phosphatidylinositol 5-phosphate 4-kinase type-2 alpha (Homo sapiens) (UniProt P48426); assay: qHTS for Inhibitors of PI5P4K: Confirmation in Primary Assay; settings: PI5P4Kalpha enzyme, ADP-Glo luminescence, 60 min; series mostly up to 76.9 µM; note: nearly all actives have a fitted effect of over 65% in size
Sequence (P48426 whole entry, looked up): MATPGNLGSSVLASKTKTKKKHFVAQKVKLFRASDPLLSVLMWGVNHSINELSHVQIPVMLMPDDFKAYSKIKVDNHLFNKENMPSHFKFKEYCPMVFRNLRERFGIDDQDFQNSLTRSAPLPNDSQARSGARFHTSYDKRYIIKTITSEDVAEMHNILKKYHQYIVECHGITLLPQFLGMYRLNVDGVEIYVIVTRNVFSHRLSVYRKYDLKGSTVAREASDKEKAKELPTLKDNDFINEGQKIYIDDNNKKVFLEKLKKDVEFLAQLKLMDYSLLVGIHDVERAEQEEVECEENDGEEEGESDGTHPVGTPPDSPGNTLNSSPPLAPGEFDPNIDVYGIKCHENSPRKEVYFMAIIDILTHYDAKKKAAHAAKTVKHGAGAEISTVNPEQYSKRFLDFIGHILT
Hit rate of the full screen: of about 1,100 compounds, about 340 (31%) were called active. Not shown: some 40% with an inconclusive outcome. Calls come from the whole dose curve; as a rule, active = well fitted inhibition curve with a large enough effect; inconclusive = small, poorly fitted or top-dose-only effect; inactive = flat fitted curve, though single readings scatter. Only a sample is shown.
# output must be one of 1.0 (active), 0.0 (inactive)

q: Can you look up the reported call for COc1ccc(C(CNC(=O)c2ccc(OCc3cscn3)cc2)N2CCCC2)cc1 (stereo not given) for me?
a: 0.0

q: Check `O=S(=O)(Nc1ccc2cn[nH]c2c1)c1ccccc1` too.
a: 0.0

q: Check COc1ccc(S(=O)(=O)N2CCN(C(=O)C3COc4ccccc4O3)CC2)cc1 (stereo not given) too.
a: 1.0

q: Check `COc1ccc(C(=O)NCCSc2ccccc2)cc1OC` too.
a: 0.0

q: Check `CCc1nnc(NC(=O)c2cc(-c3ccc(C)o3)nc3ccccc23)s1` too.
a: 0.0

q: Check `CN(C)C(=S)NCc1ccccc1` too.
a: 0.0

q: Check `O=C(COC(=O)C1CCCCC1)Nc1ccccc1OC(F)F` too.
a: 0.0

q: Check `NC(=O)c1ccsc1NC(=O)c1ccc([N+](=O)[O-])o1` too.
a: 1.0

q: Check `COc1ccc(-c2csc(NC(=O)c3ccccc3F)c2C(=O)O)cc1` too.
a: 0.0

q: Check `COC(=O)Nc1ccc(S(=O)(=O)N2CCC(C(=O)N3CCC(C)CC3)CC2)cc1` too.
a: 0.0

q: Check `O=S(=O)(c1ccccc1)c1nc(-c2ccco2)oc1N1CCCCCC1` too.
a: 0.0

q: Check `O=C(N[C@@H](Cc1ccccc1)C(=O)OCc1ccccc1)c1nc[nH]c1C(=O)NC(c1ccccc1)c1ccccc1` too.
a: 0.0

q: Check `C[C@H](NC(=O)c1nc[nH]c1C(=O)N[C@@H](C)C(=O)OC(C)(C)C)C(=O)OC(C)(C)C` too.
a: 0.0

q: Check O=C1NC(c2cc(Cl)cc([N+](=O)[O-])c2O)Nc2ccccc21 (stereo not given) too.
a: 1.0

q: Check `Cc1cc(C)c2c(N)c(C(=O)Nc3c(C)n(C)n(-c4ccccc4)c3=O)sc2n1` too.
a: 0.0

q: Check COc1ccc(Cl)cc1C(Nc1cccnc1)c1ccc2cccnc2c1O (stereo not given) too.
a: 1.0

q: Check `O=C(c1ccc(F)cc1)c1cc2ccc(O)cc2oc1=O` too.
a: 1.0

q: Check `O=S(=O)(NCCC1=CCCCC1)c1cccc(S(=O)(=O)N2CCOCC2)c1` too.
a: 0.0

q: Check `C[C@H]1CN=C(Nc2ccccc2)N1CCCC1CCCCC1` too.
a: 0.0

q: Check `Cc1cccnc1NC(=O)CSc1nnc(COc2ccc(C(C)C)cc2)n1C` too.
a: 0.0

q: Check `COc1ccc(S(=O)(=O)N2CCN(C(=O)c3cc4c(s3)CCC4)CC2)cc1` too.
a: 1.0

q: Check `Cc1ccc(CSCC(=O)N2CCOCC2)cc1` too.
a: 0.0

q: Check O=C(CCN1CCc2ccccc2C(c2ccccc2)C1)c1ccc2c(c1)OCCO2 (stereo not given) too.
a: 0.0

q: Check `CSc1ncccc1C(=O)Nc1ccc(OC(F)(F)F)cc1` too.
a: 0.0

q: Check `O=c1oc2cc(O)ccc2cc1-c1ccc(F)cc1` too.
a: 0.0

q: Check `COc1cc(C(=O)Nc2scc(-c3ccccc3)c2C(=O)O)cc(OC)c1OC` too.
a: 1.0

q: Check `O=C(NCc1ccco1)c1cc2ccc(O)cc2oc1=O` too.
a: 1.0

q: Check CN1CCN(C(c2ccc(Br)cc2)c2cc(Cl)c3cccnc3c2O)CC1 (stereo not given) too.
a: 1.0

q: Check `O=C(CSc1nc(-c2ccccc2)cc(=O)[nH]1)N1CCc2ccccc21` too.
a: 0.0

q: Check `COc1cc(C(=O)Nc2scc(-c3ccc(C)cc3)c2C(=O)O)cc(OC)c1OC` too.
a: 1.0

q: Check `O=S(=O)(c1ccc2nc(-c3ccco3)c(-c3ccco3)nc2c1)N1CCOCC1` too.
a: 1.0

q: Check CC1(C(=O)NS(=O)(=O)C2CC2)CCN(C(=O)c2ccccc2F)C1 (stereo not given) too.
a: 0.0

q: Check `CCOC(=O)c1nnn(-c2ccccc2)c1C` too.
a: 0.0

q: Check `CC(C)C(=O)Nc1ccccc1N1CCN(S(C)(=O)=O)CC1` too.
a: 0.0

q: Check `Cc1sc(NC(=O)c2sc3nc4c(C)cccc4cc3c2N)c(C#N)c1C` too.
a: 1.0

q: Check `O=C(Cc1ccc(Cl)cc1Cl)Nc1cccc(S(=O)(=O)Nc2ccccc2F)c1` too.
a: 1.0

q: Check `COCCN(C(=O)COC(=O)c1cc2c(s1)CCC2)c1c(N)n(Cc2ccccc2)c(=O)[nH]c1=O` too.
a: 1.0

q: Check `O=C(Nc1nnc(-c2ccc(Cl)cc2)o1)c1nc2ccccc2s1` too.
a: 1.0

q: Check `Cc1csc(NC(=O)c2cc(-c3ccco3)nc3ccccc23)n1` too.
a: 1.0

q: Check `CCc1cc(=O)oc2cc(C)c(CN3CCCCC3)c(O)c12` too.
a: 0.0

q: Check `COCCn1c(SCC(=O)Nc2cccc(S(N)(=O)=O)c2)nc2cc(Cl)ccc2c1=O` too.
a: 0.0

q: Check `O=C(Nc1nccs1)c1cc(-c2ccco2)nc2ccccc12` too.
a: 1.0

q: Check `Cc1ccc(NC(=O)Nc2cccs2)cc1` too.
a: 0.0

q: Check Cc1ccc(C(c2cc(Cl)c3cccnc3c2O)N2CCN(C)CC2)cc1 (stereo not given) too.
a: 1.0

q: Check `CCc1nnc(NC(=O)c2cc(-c3ccco3)nc3ccccc23)s1` too.
a: 1.0

###

biological target: Phosphatidylinositol 5-phosphate 4-kinase type-2 alpha (Homo sapiens) (UniProt P48426); assay: qHTS for Inhibitors of PI5P4K: Confirmation in Primary Assay; settings: PI5P4Kalpha enzyme, ADP-Glo luminescence, 60 min; series mostly up to 76.9 µM; note: nearly all actives have a fitted effect of over 65% in size
Hit rate of the full screen: of about 1,100 compounds, about 340 (31%) were called active. Inconclusive results (about 40%) are left out. Calls come from the whole dose curve; as a rule, active = well fitted inhibition curve with a large enough effect; inconclusive = small, poorly fitted or top-dose-only effect; inactive = flat fitted curve, though single readings scatter. The list is a sample of the results.
# output must be one of t (active), f (inactive)

q: Can you look up the reported call for `COc1cccc(CNc2nc(NC(C)C)nc3ccsc23)c1` for me?
a: f

q: Check `COc1ccccc1N1CCN(C(=O)c2ccc(C(C)(C)C)cc2)CC1` too.
a: f

q: Check O=C(Cc1cccs1)N(CC1CCCO1)C1(C(=O)NC2CCCCC2)CCCCC1 (configuration not stated) too.
a: f

q: Check `O=C(Nc1ccc2nc(-c3ccco3)c(-c3ccco3)nc2c1)N1CCN(c2ccccn2)CC1` too.
a: t

q: Check COCCn1nnnc1C(c1cc2cc(OC)c(OC)cc2[nH]c1=O)N1CCN(c2ccc(O)cc2)CC1 (configuration not stated) too.
a: f

q: Check `O=C(c1ccc2nc(-c3ccco3)c(-c3ccco3)nc2c1)N1CCN(c2ncccn2)CC1` too.
a: t

q: Check `O=c1c2ccccc2cnn1-c1nc2ccccc2[nH]1` too.
a: t

q: Check `CC(C)c1ccc(CNc2nc(NCC3CC3)nc3ccsc23)cc1` too.
a: f

q: Check `NS(=O)(=O)c1cccc(NC(=O)CSc2nnnn2-c2ccccc2)c1` too.
a: f

q: Check `c1ccc(CNc2nc(NCC3CC3)nc3cc(-c4ccccc4)sc23)cc1` too.
a: t

q: Check `O=C1COc2ccc(S(=O)(=O)NCCc3ccccc3)cc2N1` too.
a: f

q: Check `COc1ccc2[nH]c(=O)c(CN(Cc3nnnn3Cc3ccco3)C3CCCCC3)cc2c1` too.
a: f

q: Check `O=C(O)c1cc2c(N3CCC(Cc4ccccc4)CC3)ncnc2s1` too.
a: t

q: Check `COc1cc(OC)cc(-c2nnc(NC(=O)CCS(=O)(=O)c3ccc(C)cc3)o2)c1` too.
a: f

q: Check CC(=O)c1ccc(NC(=O)CC2Nc3cccc4cccc(c34)NC2=O)cc1 (configuration not stated) too.
a: t

q: Check `CC(C)C(=O)N1CCN(c2ccccc2NC(=O)c2ccco2)CC1` too.
a: f

q: Check Cc1cccc(C)c1NC(=O)C(c1ccccc1)n1c(=O)c(-c2ccco2)nc2ccccc21 (configuration not stated) too.
a: f

q: Check `COc1ccccc1Nc1ccc2c(O)cc(S(=O)(=O)O)cc2c1` too.
a: t

q: Check `Cn1c(=O)c2c(-c3ccccc3)n(-c3cccc(O)c3)cc2n(C)c1=O` too.
a: f

q: Check `COc1ccccc1CNc1nc(NCc2cccc(OC)c2OC)c2sccc2n1` too.
a: f

q: Check CC(Oc1ccc(F)cc1)C(=O)N1CCN(c2ncccn2)CC1 (configuration not stated) too.
a: f

q: Check `O=C(OCc1nnc(-c2ccccc2)o1)c1ccc2ccccc2n1` too.
a: f
